Target: T1, human Gro-alpha (human, UniProt P09341 35-107)
T1 sequence (looked up): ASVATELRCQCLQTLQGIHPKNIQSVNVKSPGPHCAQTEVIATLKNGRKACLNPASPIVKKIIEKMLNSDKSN
Assay: cell-based or functional assay
For each record, write down the corresponding FLIPR IC50.

q: Which value of FLIPR IC50 has been reported for 2B12.1E1 (antibody, IgG2c, V domains shown) VH: EVQLQQSGPELVKPGASVKISCKASGYTFTDYYMNWVKQSHGKSLEWIGDINPNNGNTNYNQKFKGKATLTVDKSSSTAYMEFRSLTSEDSAVYYCAGLGRIFDYWGQGTTLTVSS VL: ENVLTQSPAIMSASPGEKVTMTCRASSSVSSTFLHWYQQKSGASPKLWIYSTSDLASGVPARFSGSGSGTSYSLTISSVEAEDAATYYCQQYSGYPWTFGGGTKLEIK in the records?
a: > 67 µg/mL

q: Item: 5D2.2D10 (antibody, V domains shown) VH: QIQLVQSGPELKKPGETVKISCKASGYIFTAYGMSWVKQAPGKGLKWMGWINTYSGVPTYADHFKGRFDFSLETSASTAYLQINNLKNEDTATYFCARPTVVDPWYFDVWGTGTTVTVSS VL: DIQMTQSPASLSVSVGETVTITCRASENIYSNLAWYQQKQGKSPQLLVYAATNLGDGVPSRFSGSGSGTQYSLKINSLQSEDFGSYYCQHFWTTPWTFGGGTKLEIK
a: > 200 µg/mL

q: What do you get for 9D12.1H4 (antibody, IgG1, V domains shown) VH: EVQLQQSGPELVKPGASVRMSCKASGNTVIDYNIHWVKQSQGKSLEWIGYINPNSGGTGYNEKFKDKATLTINKSSSTAHMDLRSLTSEDSAVYYCTRFDFWGQGTTLTVSS VL: DVLMTQTPLSLPVSLGDQASISCRSTQSIVPVNGNTHLEWYLHKPGQSPKLLIYKVSNRFSGVPDRFSGSGSGTDFTLKISRVEAEDLGVYYCFQASHVPWTFGGGTKLEIK ?
a: > 67 µg/mL
